target: Escherichia coli SC (^EcSC) (Escherichia coli); construct: His tag (inferred from the pET15b vector and Ni-NTA purification) (N); made in house; host or cells: E. coli; assay: biochemical; format: binding; settings: read-out: kon (M^-1.s^-1)
Square brackets hold non-standard residues; d marks the D form. Peptide text beside a SMILES is read from it. Cha = N[C@@H](CC1CCCCC1)C(=O)O
Outcome Measure: kon

Task: Fill in the blank: the reported kon of CC(=O)N[C@@H](CCC(N)=O)C(=O)N[C@@H](CC1CCCCC1)C(=O)N[C@@H](CC(=O)O)C(=O)N[C@@H](CC(C)C)C(=O)N1CCC[C@H]1C(=O)N[C@@H](CC(C)C)C(=O)O [P32] (Ac-Q[Cha]DLPL-OH) is ____.
Output: 57000 M⁻¹ s⁻¹

Task: Thanks! And CC(=O)N[C@@H](CCC(N)=O)C(=O)N[C@@H](CC1CCCCC1)C(=O)N[C@@H](CC(=O)O)C(=O)N[C@@H](CC(C)C)C(=O)N[C@@H](Cc1ccccc1)C(=O)O [P1, Ac-Gln-Cha-Asp-Leu-Phe-OH, reference compound] (Ac-Q[Cha]DLF-OH) ?
Output: 40000 M⁻¹ s⁻¹

* * *

target: Escherichia coli SC (^EcSC) (Escherichia coli, UniProt P0A988); construct: His tag (inferred from the pET15b vector and Ni-NTA purification) (N); made in house; host or cells: E. coli; test: biochemical; format: binding; conditions: ITC at 298.15 K (25° C.)
Sequence (P0A988 whole entry): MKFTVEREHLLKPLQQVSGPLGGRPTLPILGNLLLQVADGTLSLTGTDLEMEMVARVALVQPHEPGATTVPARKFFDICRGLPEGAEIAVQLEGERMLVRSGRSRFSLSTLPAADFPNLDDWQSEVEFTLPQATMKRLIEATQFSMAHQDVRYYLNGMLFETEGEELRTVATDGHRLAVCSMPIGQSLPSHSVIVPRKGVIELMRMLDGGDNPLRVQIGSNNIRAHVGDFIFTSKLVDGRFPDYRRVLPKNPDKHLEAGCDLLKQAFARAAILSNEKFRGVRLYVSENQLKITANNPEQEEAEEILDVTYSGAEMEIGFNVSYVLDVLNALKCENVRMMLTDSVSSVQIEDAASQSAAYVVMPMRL
Numbered stars: 1 amine (or outer) side, 2 acyl side, 3 side chain; on linkers, the order of the positions; unused ones are H or OH. Square brackets hold non-standard residues; d marks the D form. Peptide text beside a SMILES is read from it. * marks the point of attachment. NEtAsp = CCN([C@@H](CC(=O)[*:3])C(=O)[*:2])[*:1]; ACHC(1S,2S) = O=C([C@H]1CCCC[C@@H]1N[*:1])[*:2]; NMeR = CN[C@@H](CCCNC(=N)N)C(=O)O; NMeF = CN[C@@H](Cc1ccccc1)C(=O)O; NMeQ = CN[C@@H](CCC(N)=O)C(=O)O; Cha = N[C@@H](CC1CCCCC1)C(=O)O; X6 = O=C(/C=C/c1ccccc1)*
Outcome Measure: ΔG (kcal/mol)

Task: Fill in the blank: the reported ΔG (kcal/mol) of CC(=O)N[C@@H](CCC(N)=O)C(=O)N[C@@H](CC1CCCCC1)C(=O)N[C@@H](CC(=O)O)C(=O)N[C@@H](CC(C)C)C(=O)NCC(=O)N[C@@H](Cc1ccccc1)C(=O)O [P29] (Ac-Q[Cha]DLGF-OH) is ____.
Output: -8.9 (± 0.1) kcal/mol

Task: How about CC(=O)N(C)[C@@H](CCC(N)=O)C(=O)N[C@@H](CC1CCCCC1)C(=O)N[C@@H](CC(=O)O)C(=O)N[C@@H](CC(C)C)C(=O)N[C@@H](Cc1ccccc1)C(=O)O [P2] (Ac-[NMeQ][Cha]DLF-OH) ?
Output: -7.7 (± 0.2) kcal/mol

Task: Try CC(=O)N[C@@H](CCC(N)=O)C(=O)N[C@@H](CC1CCCCC1)C(=O)N[C@@H](CC(=O)O)C(=O)N[C@@H](CC(C)C)C(=O)NCC(=O)N[C@@H](CC(C)C)C(=O)O [P27] (Ac-Q[Cha]DLGL-OH) next.
Output: -8.4 (± 0.1) kcal/mol

Task: Next molecule up: CC(=O)N[C@@H](CCC(N)=O)C(=O)N[C@@H](CC1CCCCC1)C(=O)N[C@@H](CC(=O)O)C(=O)N[C@@H](CC(C)C)C(=O)N[C@H]1CCCC[C@@H]1C(=O)N[C@@H](CC(C)C)C(=O)O [P31] (Ac-Q[Cha]DL[ACHC(1S,2S)]L-OH)
Output: -7.4 (± 0.2) kcal/mol

Task: Next molecule up: CCN(C(=O)[C@H](CC1CCCCC1)NC(=O)[C@H](CCC(N)=O)NC(C)=O)[C@@H](CC(=O)O)C(=O)N[C@@H](CC(C)C)C(=O)N[C@@H](Cc1ccccc1)C(=O)O [P5] (Ac-Q[Cha][NEtAsp]LF-OH)
Output: -8.57 (± 0.07) kcal/mol

Task: Then this molecule: CC(=O)N[C@@H](CCC(N)=O)C(=O)N[C@@H](CC1CCCCC1)C(=O)N[C@@H](CC(=O)O)C(=O)N[C@@H](CC(C)C)C(=O)N(C)[C@@H](Cc1ccccc1)C(=O)O [P7] (Ac-Q[Cha]DL[NMeF]-OH)
Output: -7.1 (± 0.1) kcal/mol

Task: Would you mind doing CC(=O)N(C)[C@@H](CCCNC(=N)N)C(=O)N[C@@H](CCC(N)=O)C(=O)N[C@@H](CC1CCCCC1)C(=O)N[C@@H](CC(=O)O)C(=O)N[C@@H](CC(C)C)C(=O)N[C@@H](Cc1ccccc1)C(=O)O [P13] (Ac-[NMeR]Q[Cha]DLF-OH) as well?
Output: -7.7 (± 0.1) kcal/mol

Task: Also CC(C)C[C@H](NC(=O)[C@H](CC(=O)O)NC(=O)[C@H](CC1CCCCC1)NC(=O)[C@H](CCC(N)=O)NC(=O)/C=C/c1ccccc1)C(=O)N[C@@H](Cc1ccccc1)C(=O)O [P17] (X6-Q[Cha]DLF-OH) ?
Output: -9.4 (± 0.2) kcal/mol

Task: Would you mind doing CC(=O)N[C@@H](CCC(N)=O)C(=O)N[C@@H](CC1CCCCC1)C(=O)N[C@@H](CC(=O)O)C(=O)N[C@@H](CC(C)C)C(=O)N[C@@H](Cc1ccccc1)C(=O)O [P1, Ac-Gln-Cha-Asp-Leu-Phe-OH, reference compound] (Ac-Q[Cha]DLF-OH) as well?
Output: -9.2 (± 0.2) kcal/mol

* * *

biological target: Escherichia coli SC (^EcSC) (Escherichia coli, UniProt P0A988); construct: His tag (inferred from the pET15b vector and Ni-NTA purification) (N); made in house; host or cells: E. coli; test: biochemical; format: binding; settings: read-out: kon (M^-1.s^-1)
Numbered stars: 1 amine (or outer) side, 2 acyl side, 3 side chain; on linkers, the order of the positions; unused ones are H or OH. Square brackets hold non-standard residues; d marks the D form. Peptide text beside a SMILES is read from it. * marks the point of attachment. NEtAsp = CCN([C@@H](CC(=O)[*:3])C(=O)[*:2])[*:1]; ACHC(1S,2S) = O=C([C@H]1CCCC[C@@H]1N[*:1])[*:2]; NH(4-MeO-phenyl) = COc1ccc(N*)cc1; NMeR = CN[C@@H](CCCNC(=N)N)C(=O)O; X4 = O=C([O-])[C@H](Cc1ccccc1)N*; NMeQ = CN[C@@H](CCC(N)=O)C(=O)O; Cha = N[C@@H](CC1CCCCC1)C(=O)O; NMeD = CN[C@@H](CC(=O)O)C(=O)O; X3 = CN(C)C(NCC(=O)*)=[N+](C)C; Pip = O=C(O)[C@@H]1CCCCN1; CO = O=C([*:1])[*:2]
Note to self: use YES only for kon readings below 30000 M⁻¹ s⁻¹; a reading exactly at 30000 M⁻¹ s⁻¹ still gets NO.

Task: Determine if CC(=O)N(C)[C@@H](CCCNC(=N)N)C(=O)N[C@@H](CCC(N)=O)C(=O)N[C@@H](CC1CCCCC1)C(=O)N[C@@H](CC(=O)O)C(=O)N[C@@H](CC(C)C)C(=O)N[C@@H](Cc1ccccc1)C(=O)O [P13] (Ac-[NMeR]Q[Cha]DLF-OH) shows kon strictly lower than 30000 M⁻¹ s⁻¹.
Output: YES

Task: Now consider CC(=O)N[C@@H](CCC(N)=O)C(=O)N[C@@H](CC1CCCCC1)C(=O)N[C@@H](CC(=O)O)C(=O)N[C@@H](CC(C)C)C(=O)N1CCCC[C@H]1C(=O)N[C@@H](CC(C)C)C(=O)O [P34] (Ac-Q[Cha]DL[Pip]L-OH) and answer again.
Output: NO

Task: Next compound: COc1ccc(NC(=O)N[C@@H](CCC(N)=O)C(=O)N[C@@H](CC2CCCCC2)C(=O)N[C@@H](CC(=O)O)C(=O)N[C@@H](CC(C)C)C(=O)N[C@@H](Cc2ccccc2)C(=O)O)cc1 [P22] ({NH(4-MeO-phenyl)-CO}-Q[Cha]DLF-OH)
Output: NO

Task: Same thing, different compound: CC(=O)N[C@@H](CCCNC(=N)N)C(=O)N[C@@H](CCC(N)=O)C(=O)N[C@@H](CC1CCCCC1)C(=O)N[C@@H](CC(=O)O)C(=O)N[C@@H](CC(C)C)C(=O)N[C@@H](Cc1ccccc1)C(=O)O [P12] (Ac-RQ[Cha]DLF-OH)
Output: NO

Task: Would you mind doing CC(C)C[C@H](NC(=O)[C@H](CC(=O)O)NC(=O)[C@H](CC1CCCCC1)NC(=O)[C@H](CCC(N)=O)NC(=O)CNC(N(C)C)=[N+](C)C)C(=O)N[C@@H](Cc1ccccc1)C(=O)[O-] [P15] (X3-Q[Cha]DL-X4) as well?
Output: NO

Task: Try this compound too: CC(=O)N(C)[C@@H](CCC(N)=O)C(=O)N[C@@H](CC1CCCCC1)C(=O)N[C@@H](CC(=O)O)C(=O)N[C@@H](CC(C)C)C(=O)N[C@@H](Cc1ccccc1)C(=O)O [P2] (Ac-[NMeQ][Cha]DLF-OH)
Output: YES

Task: Next compound up: CC(=O)N[C@@H](CCC(N)=O)C(=O)N[C@@H](CC1CCCCC1)C(=O)N[C@@H](CC(=O)O)C(=O)N[C@@H](CC(C)C)C(=O)N[C@H]1CCCC[C@@H]1C(=O)N[C@@H](CC(C)C)C(=O)O [P31] (Ac-Q[Cha]DL[ACHC(1S,2S)]L-OH)
Output: YES

Task: Further, for CCN(C(=O)[C@H](CC1CCCCC1)NC(=O)[C@H](CCC(N)=O)NC(C)=O)[C@@H](CC(=O)O)C(=O)N[C@@H](CC(C)C)C(=O)N[C@@H](Cc1ccccc1)C(=O)O [P5] (Ac-Q[Cha][NEtAsp]LF-OH) ?
Output: YES

Task: Another compound to check: CC(=O)N[C@@H](CCC(N)=O)C(=O)N[C@@H](CC1CCCCC1)C(=O)N(C)[C@@H](CC(=O)O)C(=O)N[C@@H](CC(C)C)C(=O)N[C@@H](Cc1ccccc1)C(=O)O [P4] (Ac-Q[Cha][NMeD]LF-OH)
Output: NO
